- experiment.summary: xn = mol fraction of the nth substance listed, in the solute-free solvent
- assay.context: 288.15 K; x2 = 0.7297
outcome.measure: solubility (g/100 g solution)

>>> numeric_readout("Nc1cccc(S(=O)(=O)c2cccc(N)c2)c1 + CC(C)O + O")
0.543
>>> numeric_readout("CN1CCN(C2=Nc3cc(Cl)ccc3Nc3ccccc32)CC1 + CC(C)O + O")
1.32
>>> numeric_readout("Cc1[nH]c(=O)c(C#N)cc1-c1ccncc1 + CC(C)O + O")
0.012
>>> numeric_readout("c1ccc2[nH]c(-c3cscn3)nc2c1 + CCCO + O")
0.482
>>> numeric_readout("Nc1nccnc1Cl + CC(C)O + O")
0.672
>>> numeric_readout("c1ccc2[nH]c(-c3cscn3)nc2c1 + CC(C)O + O")
0.23

---

- experiment.summary: xn = mol fraction of the nth substance listed, in the solute-free solvent
- assay.context: 298.15 K; x2 = 0.04165
outcome.measure: solubility (g/100 g solution)

>>> result("CC(C)OC(=O)C(C)NP(=O)(OCC1OC(n2ccc(=O)[nH]c2=O)C(C)(F)C1O)Oc1ccccc1 (centres undefined) + CCO + O")
1.17
>>> result("Nc1cccc(S(=O)(=O)c2cccc(N)c2)c1 + CCO + O")
0.168
>>> result("COc1cc2c(cc1OC)-c1cc3ccc(OC)c(OC)c3c[n+]1CC2.[Cl-] + CCO + O")
2.33
>>> result("Cc1[nH]c(=O)c(C#N)cc1-c1ccncc1 + CCO + O")
0.00133

---

- experiment.summary: xn = mol fraction of the nth substance listed, in the solute-free solvent
- assay.context: 278.15 K; x2 = 0.8
outcome.measure: solubility (g/100 g solution)

>>> result("Cc1ncc(C[n+]2csc(CCO)c2C)c(N)n1.O=[N+]([O-])[O-] + O + CC(C)=O")
1.55
>>> result("S=c1[nH]ncs1 + CC(C)=O + O")
23.1
>>> result("CCCCCOC(=O)Nc1nc(=O)n(C2OC(C)C(O)C2O)cc1F (stereo not drawn) + CCOC(C)=O + CCCCCCC")
0.485
>>> result("S=c1[nH]ncs1 + CCCO + O")
7.47
>>> result("Cc1ncc(C[n+]2csc(CCO)c2C)c(N)n1.O=[N+]([O-])[O-] + O + CC(C)O")
0.968
>>> result("S=c1[nH]ncs1 + CCO + O")
8.41
>>> result("Cc1ncc(C[n+]2csc(CCO)c2C)c(N)n1.O=[N+]([O-])[O-] + O + CO")
1.18
>>> result("S=c1[nH]ncs1 + CO + O")
8.37

---

- experiment.summary: xn = mol fraction of the nth substance listed, in the solute-free solvent
- assay.context: 303.15 K; x2 = 0.9
Examples of molecules with documented solubility (g/100 g solution) follow.
outcome.measure: solubility (g/100 g solution)

>>> numeric_readout("CC(N)C(=O)O (stereo not given) + O + CC(C)O")
5.51
>>> numeric_readout("S=c1[nH]ncs1 + CCO + O")
16.9
>>> numeric_readout("Cc1ncc(C[n+]2csc(CCO)c2C)c(N)n1.O=[N+]([O-])[O-] + O + CO")
3.1
>>> numeric_readout("OCCN(CCO)c1nc(N2CCCCC2)c2nc(N(CCO)CCO)nc(N3CCCCC3)c2n1 + CO + O")
5.46
>>> numeric_readout("CC(N)C(=O)O (stereo not given) + O + CC(C)=O")
5.02
>>> numeric_readout("S=c1[nH]ncs1 + CO + O")
20.5
>>> numeric_readout("S=c1[nH]ncs1 + CCCO + O")
13.5
>>> numeric_readout("CC(N)C(=O)O (stereo not given) + O + CCCO")
6.82
>>> numeric_readout("Cc1ncc(C[n+]2csc(CCO)c2C)c(N)n1.O=[N+]([O-])[O-] + O + CC(C)=O")
4.28
>>> numeric_readout("CC(N)C(=O)O (stereo not given) + O + CO")
8.92
>>> numeric_readout("Cc1ncc(C[n+]2csc(CCO)c2C)c(N)n1.O=[N+]([O-])[O-] + O + CC(C)O")
3.48
>>> numeric_readout("S=c1[nH]ncs1 + CC(C)=O + O")
28.6
>>> numeric_readout("OCCN(CCO)c1nc(N2CCCCC2)c2nc(N(CCO)CCO)nc(N3CCCCC3)c2n1 + CCO + O")
7.23
>>> numeric_readout("CC(N)C(=O)O (stereo not given) + O + CCO")
6.66
>>> numeric_readout("OCCN(CCO)c1nc(N2CCCCC2)c2nc(N(CCO)CCO)nc(N3CCCCC3)c2n1 + CC(C)O + O")
7.64

---

- experiment.summary: xn = mol fraction of the nth substance listed, in the solute-free solvent
- assay.context: 293.15 K; x2 = 0.06974
Examples of compounds with documented solubility (g/100 g solution) follow.
outcome.measure: solubility (g/100 g solution)

>>> numeric_readout("Nc1cccc(S(=O)(=O)c2cccc(N)c2)c1 + CC(C)O + O")
0.196
>>> numeric_readout("Nc1nccnc1Cl + CC(C)O + O")
0.166
>>> numeric_readout("CN1CCN(C2=Nc3cc(Cl)ccc3Nc3ccccc32)CC1 + CC(C)O + O")
0.0473
>>> numeric_readout("c1ccc2[nH]c(-c3cscn3)nc2c1 + CCCO + O")
0.021
>>> numeric_readout("c1ccc2[nH]c(-c3cscn3)nc2c1 + CC(C)O + O")
0.0123
>>> numeric_readout("Cc1[nH]c(=O)c(C#N)cc1-c1ccncc1 + CC(C)O + O")
0.00283

---

- experiment.summary: xn = mol fraction of the nth substance listed, in the solute-free solvent
- assay.context: 293.15 K; x2 = 0.4
outcome.measure: solubility (g/100 g solution)

>>> numeric_readout("CCCCCOC(=O)Nc1nc(=O)n(C2OC(C)C(O)C2O)cc1F (configuration not stated) + CCOC(C)=O + CCCCCC")
0.219
>>> numeric_readout("CC(N)C(=O)O (configuration not stated) + O + CCCO")
0.164
>>> numeric_readout("Cc1ncc(C[n+]2csc(CCO)c2C)c(N)n1.O=[N+]([O-])[O-] + O + CO")
1.08
>>> numeric_readout("CCCCCOC(=O)Nc1nc(=O)n(C2OC(C)C(O)C2O)cc1F (configuration not stated) + CCOC(C)=O + CCCCCCC")
0.0904
>>> numeric_readout("OCCN(CCO)c1nc(N2CCCCC2)c2nc(N(CCO)CCO)nc(N3CCCCC3)c2n1 + CCO + O")
2.59
>>> numeric_readout("Cc1ncc(C[n+]2csc(CCO)c2C)c(N)n1.O=[N+]([O-])[O-] + O + CC(C)=O")
0.252
>>> numeric_readout("S=c1[nH]ncs1 + CO + O")
5.33
>>> numeric_readout("S=c1[nH]ncs1 + CC(C)=O + O")
22.5
>>> numeric_readout("CC(N)C(=O)O (configuration not stated) + O + CC(C)O")
0.124
>>> numeric_readout("S=c1[nH]ncs1 + CCO + O")
9.53
>>> numeric_readout("S=c1[nH]ncs1 + CCCO + O")
10.7
>>> numeric_readout("CC(N)C(=O)O (configuration not stated) + O + CCO")
0.185

---

- experiment.summary: xn = mol fraction of the nth substance listed, in the solute-free solvent
- assay.context: 313.15 K; x2 = 0.06974
outcome.measure: solubility (g/100 g solution)

>>> result("c1ccc2[nH]c(-c3cscn3)nc2c1 + CC(C)O + O")
0.0263
>>> result("Nc1cccc(S(=O)(=O)c2cccc(N)c2)c1 + CC(C)O + O")
0.549
>>> result("CN1CCN(C2=Nc3cc(Cl)ccc3Nc3ccccc32)CC1 + CC(C)O + O")
0.113
>>> result("c1ccc2[nH]c(-c3cscn3)nc2c1 + CCCO + O")
0.0458
>>> result("Cc1[nH]c(=O)c(C#N)cc1-c1ccncc1 + CC(C)O + O")
0.00479
>>> result("Nc1nccnc1Cl + CC(C)O + O")
0.316

---

Examples of compounds with documented solubility (g/100 g solution) follow.
- experiment.summary: xn = mol fraction of the nth substance listed, in the solute-free solvent
- assay.context: 323.15 K; x2 = 0.2307
outcome.measure: solubility (g/100 g solution)

>>> numeric_readout("Nc1cccc(S(=O)(=O)c2cccc(N)c2)c1 + CC(C)O + O")
1.97
>>> numeric_readout("c1ccc2[nH]c(-c3cscn3)nc2c1 + CCCO + O")
0.413
>>> numeric_readout("c1ccc2[nH]c(-c3cscn3)nc2c1 + CC(C)O + O")
0.23
>>> numeric_readout("Nc1nccnc1Cl + CC(C)O + O")
1.24
>>> numeric_readout("CN1CCN(C2=Nc3cc(Cl)ccc3Nc3ccccc32)CC1 + CC(C)O + O")
1.07
>>> numeric_readout("Cc1[nH]c(=O)c(C#N)cc1-c1ccncc1 + CC(C)O + O")
0.017
